B1: COUP transcription factor 1, residues 83 to 159; numbered along this chain, P10589 (parent)
chain: HIECVVCGDKSSGKHYGQFTCEGCKSFFKRSVRRNLTYTCRANRNCPIDQHHRNQCQYCRLKKCLKVGMRREAVQRG

- Variants of: B1
- measurement.description: abundance fitness (aPCA) (normalised: wild type 0, dead -1); higher = more abundant; growth selection in yeast, the domain comes from the species named
- condition.parameters: Homo sapiens
Task for the reader: assign each of the following variants its reported abundance fitness.

Give abundance fitness for each listed item.
1. HIECVVCGDKSSGKHYGQFTCEGCKTFFKRSVRRNLTYTCRANRNCPIDQHHRNQCQYCRLKKCLKVGMRREAVQRG [S26T]
2. HIECVVCGDKSSGKHYGQFTCEGCKSFFKRSVRRNLTYTCRANRNCPIDQHHRNQCQLCRLKKCLKVGMRREAVQRG [Y58L]
3. HIECVVCGDKSSGKHYGQFTCEGCKSFFKRSVRRNLTYTCRANRDCPIDQHHRNQCQYCRLKKCLKVGMRREAVQRG [N45D]
4. HIECVVCGDKSSGKHYGQFTCEGCKSFFKRSVRRNLTYTCRANRNIPIDQHHRNQCQYCRLKKCLKVGMRREAVQRG [C46I]
5. HIECVVCGDKSSGKHYGQFTCEGCKSFFKRSVRRNLTYTCRWNRNCPIDQHHRNQCQYCRLKKCLKVGMRREAVQRG [A42W]

[0.139, -0.378, -0.035, -0.267, -0.123]

Give abundance fitness for each listed item.
1. HIECVVCGDKSSGKHYGQFTCEGCKKFFKRSVRRNLTYTCRANRNCPIDQHHRNQCQYCRLKKCLKVGMRREAVQRG [S26K]
2. HIECVVCGDKSSGKHYGQFTCEGCKSFFKRSVRRNLTYTCRANRNCPIDQHHRNQCQYCRLKKCSKVGMRREAVQRG [L65S]
3. HIECVVCGDKSSGKHYGQFTCEGCKSFFKRSVRRNLTTTCRANRNCPIDQHHRNQCQYCRLKKCLKVGMRREAVQRG [Y38T]
4. HIECVVCGDKSSGKHYGQFTCEGCKSFFKRSVRRNLTYTCRANRNCPIKQHHRNQCQYCRLKKCLKVGMRREAVQRG [D49K]
5. HIECVVCGDKSSGKHYGQFTCEGCKSFFKRSVRRNLTYTCRANRNLPIDQHHRNQCQYCRLKKCLKVGMRREAVQRG [C46L]
6. HIECVVCGDKSSGKHYGQFTCEGCKSFFKRSVRRNLTYTCRANRNCPIDFHHRNQCQYCRLKKCLKVGMRREAVQRG [Q50F]
7. HIECVVCGDKSSGKHYGQFTCEGCKSFFKRSVRRNLTYTCRANRNCPIDQHHRNQCQYCRLKKCLKVGMRREAVMRG [Q75M]
8. HIECVVCGDKSSGKHYGQFTCEGCKSFFKRSVRRNLTYTCRANRNCPIDQHHRNQCQYCRLKKCLKVGMRREAVQDG [R76D]

0.321
-0.472
-0.669
-0.343
-0.492
-0.299
-0.114
0.221

Give abundance fitness for each listed item.
1. HIECVVCGDKSSGKHYGQFTCEWCKSFFKRSVRRNLTYTCRANRNCPIDQHHRNQCQYCRLKKCLKVGMRREAVQRG [G23W]
2. HIECVVCGDKSSGKHYGQFTCEGCKSFFKRSVRRNLTYTCRANRNCPIDQHHRNQCQYCRLKKCLKVGMRREAWQRG [V74W]
3. HIECVVCGDKSSGKHYGQFTCEGCKPFFKRSVRRNLTYTCRANRNCPIDQHHRNQCQYCRLKKCLKVGMRREAVQRG [S26P]
4. HIECVVCGDKSSGKHYGQFTCEGCKSFFKRSVRRNLTYTCRANRNCPIDQHHRNQCQYCILKKCLKVGMRREAVQRG [R60I]
5. HIECVVCGDKSSGKHYGQFTCEGCKSFFKRSVRRNLTYTCRANRNCPIDQHHRNQCQYCNLKKCLKVGMRREAVQRG [R60N]
6. HIECVVCGDKSSGKHYPQFTCEGCKSFFKRSVRRNLTYTCRANRNCPIDQHHRNQCQYCRLKKCLKVGMRREAVQRG [G17P]
7. HIECVVCGDKSSGKHYGQFTCEGQKSFFKRSVRRNLTYTCRANRNCPIDQHHRNQCQYCRLKKCLKVGMRREAVQRG [C24Q]

0.189
-0.3
-0.812
-0.227
-0.416
-0.572
-1.04

Give abundance fitness for each listed item.
1. HIECVVCGDKSSGKHYGQFTCEGCKSFFKRSVRRNLTYTCRANRNCPIDQHHRNGCQYCRLKKCLKVGMRREAVQRG [Q55G]
2. HIECVVCGDKSSGKHYGQFTVEGCKSFFKRSVRRNLTYTCRANRNCPIDQHHRNQCQYCRLKKCLKVGMRREAVQRG [C21V]
3. HIECVVCGDKSSGKHYGQFTCEGCKSFFKRSVRRNLTYTCRANRNCPIDQHHRNQCQYCRLKKCLKVGMRREIVQRG [A73I]
4. HIECVVCGDKSSGKHYGQFECEGCKSFFKRSVRRNLTYTCRANRNCPIDQHHRNQCQYCRLKKCLKVGMRREAVQRG [T20E]
5. HIECVVCGDKSSGKHYGQFTCEGCKMFFKRSVRRNLTYTCRANRNCPIDQHHRNQCQYCRLKKCLKVGMRREAVQRG [S26M]
6. HIECVVCGDKSSGKHYGQFTCEGCKSFFKRSVRRNLTYTCRANRNCPYDQHHRNQCQYCRLKKCLKVGMRREAVQRG [I48Y]
7. HIECVVCGDKSSGKHYGQFTCEGCKSFFKRSVRRNLTYTCRANRNCPIDGHHRNQCQYCRLKKCLKVGMRREAVQRG [Q50G]
8. HIECVVCGDKSSGKHYGQFTCEGCKSFFKRSVRRNLTYTCRANRNCPIDQHHRNQCQDCRLKKCLKVGMRREAVQRG [Y58D]

[-0.017, -1.09, -0.239, -0.116, 0.298, -0.518, -0.149, -0.046]
